These data points were gathered from patent US10227331B2.

Efflux ratio values, listed per item
Tested on: P. aeruginosa expressing IMP-1, efflux+ (MB9798)
Format: cell-based, Pseudomonas aeruginosa
Details: ratio MITC95 PA_9798/MITC95 PA_9799
API doc: respond with a numeric literal and nothing else, no unit.

Kindly note: P. aeruginosa expressing IMP-1, efflux+ (MB9798), Cc1ccc(-c2ccc(S(=O)(=O)CCN)c(S(N)(=O)=O)c2-c2nn[nH]n2)c2nc(N)[nH]c12 , Efflux ratio value reported: 2.00

* * *

pIC50 values, listed per item
Molecular target: NDM-1 (Klebsiella pneumoniae)
Sequence (C7C422 whole entry, looked up, species assumed): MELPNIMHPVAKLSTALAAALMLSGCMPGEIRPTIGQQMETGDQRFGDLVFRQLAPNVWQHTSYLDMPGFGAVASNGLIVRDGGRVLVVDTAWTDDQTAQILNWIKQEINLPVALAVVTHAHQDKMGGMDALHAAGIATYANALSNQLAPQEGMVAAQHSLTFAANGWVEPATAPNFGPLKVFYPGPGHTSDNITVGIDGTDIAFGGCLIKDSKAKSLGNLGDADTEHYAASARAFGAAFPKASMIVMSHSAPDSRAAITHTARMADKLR
Assay: biochemical
Format: biochemical
Conditions: CCF2-FA substrate, 2 hours at 25° C; read-out: NDM-1 IC50
As a rule, pIC50 stands for the negative log10 of the concentration, concentration in M.

NS(=O)(=O)c1c(S(=O)(=O)C2CNC2)ccc(-c2cccc3ncccc23)c1-c1nnn[nH]1.O=C(O)C(F)(F)F [Example 118, 2,2,2-trifluoroacetate]	9.84
NCCS(=O)(=O)c1ccc(-c2cccc3[nH]c(C(=O)O)nc23)c(-c2nn[nH]n2)c1S(N)(=O)=O	9.72
CCOC(=O)Nc1nc2c(-c3ccc(S(=O)(=O)CCN)c(S(N)(=O)=O)c3-c3nn[nH]n3)cccc2s1	10.11
Nc1nc2c(-c3ccc(S(=O)(=O)C4CCNCC4)c(S(N)(=O)=O)c3-c3nn[nH]n3)cccc2s1	9.95
N#Cc1cc(-c2ccc(S(=O)(=O)C3CNC3)c(S(N)(=O)=O)c2-c2nnn[nH]2)c2[nH]c(N)nc2c1	9.40
Nc1cc(-c2cc(-c3ccc(S(=O)(=O)C4CNC4)c(S(N)(=O)=O)c3-c3nnn[nH]3)ccn2)ccn1	9.04

Read the next record carefully.
Item: Nc1nc2c(-c3ccc(S(=O)(=O)C4CNC4)c(S(N)(=O)=O)c3-c3nn[nH]n3)cccc2n1CCO | pIC50: 9.86
